- Tested system: human muscarinic M4 receptor (Homo sapiens)
- Construct: expressed in transfected cells
- Sequence (P08173 1-479): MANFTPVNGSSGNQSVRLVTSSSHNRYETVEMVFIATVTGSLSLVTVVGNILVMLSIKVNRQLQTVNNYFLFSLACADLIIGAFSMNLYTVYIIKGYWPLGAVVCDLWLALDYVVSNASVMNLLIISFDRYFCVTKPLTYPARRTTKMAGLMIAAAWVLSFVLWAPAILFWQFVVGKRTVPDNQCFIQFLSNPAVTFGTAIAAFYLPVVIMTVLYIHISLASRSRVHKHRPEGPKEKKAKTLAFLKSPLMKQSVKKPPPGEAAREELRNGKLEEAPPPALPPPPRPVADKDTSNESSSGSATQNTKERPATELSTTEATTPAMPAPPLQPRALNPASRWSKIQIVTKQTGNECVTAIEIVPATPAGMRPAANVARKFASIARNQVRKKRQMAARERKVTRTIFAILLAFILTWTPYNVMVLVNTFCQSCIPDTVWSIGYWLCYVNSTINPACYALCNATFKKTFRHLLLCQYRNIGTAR
- Run description: Alphascreen Surefire phospho-ERK1/2 functional assay, M4
- Format: cell-based
- Assay context: CHO cells stably expressing human M4; phospho-ERK1/2; * = variable results; read-out: pEC50 M4 (converted)

- Compound: "CCOC(=O)N1CCC2(CC(N3CCC(c4c(C)cnn4CC)CC3)C2)C1 (single isomer, unassigned) [1-59 Isomer 2]"
  EC50: "100 nM"
- Compound: "CCOC(=O)N1CCC2(CC(N3CCC([C@@H]4CCCN4C(=O)CCN)CC3)C2)C1 (single isomer, unassigned) [2-66 Isomer 2]"
  EC50: "1.26 nM"
- Compound: "CCOC(=O)N1CCC2(CC(N3CCC([C@@H]4CCCN4C(=O)N(C)C4COC4)CC3)C2)C1 (single isomer, unassigned) [2-57 Isomer 2]"
  EC50: "31.6 nM"

This collection of values is drawn from patent US9926297B2.
